system under test: T1, RASA1 C-terminal SH2 domain (human)
T1 construct: RASA1, human; source: bacterial expression, purified
T1 sequence (P20936 whole entry, looked up): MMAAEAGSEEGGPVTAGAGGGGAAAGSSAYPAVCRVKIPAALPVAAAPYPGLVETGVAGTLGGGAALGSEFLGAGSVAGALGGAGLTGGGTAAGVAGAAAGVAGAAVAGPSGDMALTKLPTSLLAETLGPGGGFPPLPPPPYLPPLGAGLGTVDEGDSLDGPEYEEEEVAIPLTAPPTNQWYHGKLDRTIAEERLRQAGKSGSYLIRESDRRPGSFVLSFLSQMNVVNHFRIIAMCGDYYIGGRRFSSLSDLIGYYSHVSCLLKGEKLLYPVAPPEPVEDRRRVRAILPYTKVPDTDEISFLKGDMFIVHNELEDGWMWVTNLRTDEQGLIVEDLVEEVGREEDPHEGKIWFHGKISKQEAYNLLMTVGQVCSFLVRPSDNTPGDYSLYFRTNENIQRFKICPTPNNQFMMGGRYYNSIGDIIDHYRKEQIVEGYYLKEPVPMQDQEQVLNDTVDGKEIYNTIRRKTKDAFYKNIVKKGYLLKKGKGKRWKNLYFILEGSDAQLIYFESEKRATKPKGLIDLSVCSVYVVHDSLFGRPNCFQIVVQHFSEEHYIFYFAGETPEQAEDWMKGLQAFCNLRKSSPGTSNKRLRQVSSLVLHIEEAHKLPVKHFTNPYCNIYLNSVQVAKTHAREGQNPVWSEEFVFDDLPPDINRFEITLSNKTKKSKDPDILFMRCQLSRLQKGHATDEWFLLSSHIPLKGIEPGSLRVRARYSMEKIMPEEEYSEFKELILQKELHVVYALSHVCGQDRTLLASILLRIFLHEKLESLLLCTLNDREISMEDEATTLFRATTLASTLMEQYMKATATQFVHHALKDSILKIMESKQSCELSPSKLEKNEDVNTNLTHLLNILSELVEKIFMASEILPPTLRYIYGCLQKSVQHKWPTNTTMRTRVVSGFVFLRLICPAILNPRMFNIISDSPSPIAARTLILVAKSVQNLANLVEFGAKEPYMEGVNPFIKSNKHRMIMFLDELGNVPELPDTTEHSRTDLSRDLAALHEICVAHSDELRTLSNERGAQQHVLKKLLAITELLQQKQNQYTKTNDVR
run description: peptide or protein array; SH2/PTB proteins spotted on aldehyde slides, rhodamine peptide titrated in buffer B (20 mM HEPES, 100 mM KCl, 0.1% Tween-20, 5 mM DTT, pH 7.8), 1 h at room temperature; replicate assays
condition set: both partners purified
Non-standard residues stand in square brackets, D forms with d. No end group written: not given here. pY = N[C@@H](Cc1ccc(OP(=O)(O)O)cc1)C(=O)O; Rhodamine = not defined here
parameter: Kd

- binder: "Rhodamine-ETDG[pY]VAPLTCSD (reading uncertain) [ErbB2 pY1127 phosphopeptide, rhodamine-labelled, for protein microarrays]"
  reported measurement: "1.21 µM"
